# Tested On: T1, human BCMA protein (human, UniProt Q02223 1-54, limits assumed)
# T1 sequence: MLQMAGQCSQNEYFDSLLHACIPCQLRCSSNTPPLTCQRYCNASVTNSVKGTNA
# Test Protocol: affinity to human BCMA protein, method not stated
Recorded Endpoint: Kd (nM)
Provide the reading as a plain figure in nM.

# Binder, Val
rows = [
    ("BCMA targeting trispecific protein 02A05 (other, not shown: large carriers; small tags and cut ends, trispecific) VHH: EVQLVESGGGLVQPGRSLTLSCAASTNIASISPMGWYRQAPGKQRELVAAIHGKSTLYADSVKGRFTISRDNAKNSIYLQMNSLRPEDTALYYCNKVPWGDYHPGNVYWGQGTQVTVSS", 7.06),
]

Next:
Exercise: Answer with reported Kd of BCMA targeting trispecific protein 01D10 (other, trispecific; not shown: anti-albumin domain, anti-CD3 domain and the linkers of the trispecific; the C-terminal His6 that follows them is left out) VHH: EVQLVESGGGLVQPGRSLTLSCAASTNIFSASPMGWYRQAPGKQRELVAAIHGSSTLYADSVKGRFTISRDNAKNSIYLQMNSLRPEDTALYYCNKVPWGRYHPRNVYWGQGTQVTVSS
Solution: 53.9

Where do the numbers come from? From patent US20240327534A1.
